test system: IGROV-1; assay: NCI tumour cell line growth inhibition, 48 h
Calls of active or inactive are those of the source. No stated cut-off is given here; in the data, active = GI50 up to about 1.1 µM and inactive = higher.
Listed here are compounds together with their documented GI50.

Before answering, review these 2 worked examples.
COMPOUND: COc1ccc2[nH]c3c(O)nncc3c2c1
GI50: > 100 µM (inactive)
--
COMPOUND: CC(CO)[C@H]1OC(=O)C=C2[C@@]13O[C@@H]3[C@H]1OC(=O)[C@@]3(C)[C@H]4O[C@H]4C[C@@]2(C)[C@@H]13 (some centres not stated)
GI50: 1.5 µM (inactive)

Task item: Requested read-out: GI50. Entry: `O=[N+]([O-])c1cc(-[n+]2cc([O-])on2)ccc1F`
Reply: 14.7 µM (inactive)

Task item: Then what about the compound CC(CCC(=O)O)C(=O)O (configuration not stated) ?
Reply: > 100 µM (inactive)

Task item: Then what about the compound `c1csc(C[N+]23CN4CN(CN(C4)C2)C3)c1` ?
Reply: 29.9 µM (inactive)

Task item: Then what about the compound CSc1nc2nc(C(O)C(O)C(O)CO)cnc2c(=O)[nH]1 (configuration not stated) ?
Reply: > 100 µM (inactive)

Task item: Then what about the compound `CN(C)/N=N/c1ccc(C(N)=O)cc1` ?
Reply: > 100 µM (inactive)

Task item: Then what about the compound `Cc1ccc(O)c(-c2csc(NCN3CCN(CNc4nc(-c5cc(C)ccc5O)cs4)CC3)n2)c1` ?
Reply: > 100 µM (inactive)

Task item: Then what about the compound `COC1=CC(=C(C#N)/C(=N\c2ccccc2)SC)C=C(OC)C1=O` ?
Reply: 86.1 µM (inactive)

====

Listed here are molecules together with their documented GI50.
tested on: COLO 205; experiment: NCI tumour cell line growth inhibition, 48 h
Active and inactive are the calls of the source. No stated cut-off is given here; in the data, active = GI50 up to about 1.1 µM and inactive = higher.

Task item: Requested read-out: GI50. Entry: `CCCCCCc1nn2c(-c3ccncc3)nnc2s1`
Reply: > 10 µM (inactive)

Task item: Then what about the molecule `NC(=O)N1N=C2c3ccccc3SC[C@H]2[C@@H]1c1ccccc1` ?
Reply: 20.7 µM (inactive)

Task item: Then what about the molecule CN1CC(S(=O)(=O)c2ccccc2)CC(S(=O)(=O)c2ccccc2)C1c1ccccc1 (stereo unspecified) ?
Reply: 13.6 µM (inactive)

Task item: Then what about the molecule `Cc1nc(N)c(N2CCN(C#N)CC2)c(O)n1` ?
Reply: > 100 µM (inactive)

Task item: Then what about the molecule CC(C)C1COC(c2cccc(C3=N[C@@H](C(C)C)CO3)n2)=N1 (stereo partly specified) ?
Reply: > 100 µM (inactive)

Task item: Then what about the molecule `CCCCc1nc(C)oc1C(C)C` ?
Reply: > 100 µM (inactive)

====

test system: LXFL 529; assay: NCI tumour cell line growth inhibition, 48 h
Calls of active or inactive are those of the source. No stated cut-off is given here; in the data, active = GI50 up to about 1.1 µM and inactive = higher.
Mark one answer only. Choices: active, inactive

MOLECULE: CC1=NN(C(=O)c2ccccc2O)C(=O)/C1=C/c1cccc([N+](=O)[O-])c1
CLASS: active

MOLECULE: COc1ccc(/C=N\O[Si](C)(C)C(C)(C)C)cc1O[Si](C)(C)C(C)(C)C
CLASS: inactive

MOLECULE: CC(C)c1ccc2c(c1)CCC1C(C)(C)[C@@H](O)CC[C@]21C (stereo partly specified)
CLASS: inactive

MOLECULE: Clc1ccccc1C1=NN(c2ccccc2)C2c3ccccc3OCC12 (stereo unspecified)
CLASS: inactive

MOLECULE: C=C1c2[nH]c3ccccc3c2CC(C(=O)O)N1C(O)c1ccc(S(=O)(=O)O)cc1 (stereo unspecified)
CLASS: inactive

Consider the record given below.
Task item: Which outcome was assigned to `Sc1nnc(COc2ccc(Cl)cc2)[nH]1` in this test?
Reply: inactive

====

Listed here are compounds together with their documented GI50.
system: MDA-MB-435; assay: NCI tumour cell line growth inhibition, 48 h
Activity calls are given as the source filed them. No stated cut-off is given here; in the data, active = GI50 up to about 1.1 µM and inactive = higher.

COMPOUND: CC(CCC(=O)O)C(=O)O (stereo unspecified)
GI50: > 100 µM (inactive)

COMPOUND: O=C1NC(=S)N/C1=C/c1c(-c2ccccc2)[nH]c2ccccc12
GI50: 13.7 µM (inactive)

COMPOUND: COc1ccc2oc(=N)c(C(N)=S)cc2c1
GI50: 25.1 µM (inactive)

Task item: Requested read-out: GI50. Entry: `CN(C)CCCn1nc(N)c2nc3cc(Cl)ccc3nc21`
Reply: 34 µM (inactive)

Task item: Then what about the compound `O=C1c2ccccc2-c2cc3ccccc3c(=O)n21` ?
Reply: > 100 µM (inactive)

Task item: Then what about the compound `O=c1oc2ccc3ccccc3c2cc1-c1nc2ccccc2o1` ?
Reply: 23.2 µM (inactive)

Task item: Then what about the compound `O=C(/C(=C/c1cccs1)c1ccccc1)c1ccccc1` ?
Reply: > 100 µM (inactive)

Task item: Then what about the compound `Cc1ccc(/N=N/c2ccc(O)c(CN(C)C)c2)cc1` ?
Reply: 17.3 µM (inactive)

====

Listed here are compounds together with their documented GI50.
test system: EKVX; assay: NCI tumour cell line growth inhibition, 48 h
Calls of active or inactive are those of the source. Cut-off read from the data, not from the text of the source: active = GI50 up to about 1.1 µM and inactive = higher.

Before answering, review these 8 worked examples.
COMPOUND: CC(C)=CCC[C@@H](C)/C=C/C=C(\C)C(=O)CC[C@@H]1CC[N@+]2(C)CCCC[C@H]12
RESULT: > 100 µM (inactive)

COMPOUND: O=C(Nc1ccccc1Br)c1cccc([N+](=O)[O-])c1O
RESULT: 3.04 µM (inactive)

COMPOUND: O=C(N/N=C\c1cccc2ccccc12)Nc1ccc([N+](=O)[O-])cc1
RESULT: > 39.4 µM (inactive)

COMPOUND: COc1ccc(/C=C2/C[N+](C)(C)C/C(=C/c3ccc(OC)cc3)C2=O)cc1
RESULT: > 100 µM (inactive)

COMPOUND: O=C(O)c1cc(O)c2c(c1)Cc1cccc(O)c1C2=O
RESULT: 22.1 µM (inactive)

COMPOUND: O=C(Nc1ccccc1C(=O)O)/C(=C/c1ccccc1)NC(=O)c1ccccc1
RESULT: > 100 µM (inactive)

COMPOUND: Cc1cc(O)nc(CNC(=O)c2cccc3ccccc23)n1
RESULT: > 100 µM (inactive)

COMPOUND: CCCCCCCCCCCCCCCC(=O)Nc1ccn(C2CC(OP(=O)(O)OCC3OC(n4cc(F)c(=O)[nH]c4=O)CC3OC(C)=O)C(CO)O2)c(=O)n1 (centres undefined)
RESULT: > 61.2 µM (inactive)

Task item: # value lookup — system EKVX, readout GI50, item CC(=O)OC1=C2CC3(C)OC(=O)CC(C)(C)C3=CC=C2C=C(C(C)C)C1=O (centres undefined)
Reply: 1.89 µM (inactive)

====

tested on: BT-549; experiment: NCI tumour cell line growth inhibition, 48 h
The source made the active and inactive calls. Cut-off read from the data, not from the text of the source: active = GI50 up to about 1.1 µM and inactive = higher.
Listed here are compounds together with their documented GI50.

Before answering, review these 5 worked examples.
COMPOUND: O=c1c(=O)c2c(Br)sc(Br)c2c1=O
GI50: 19.4 µM (inactive)

COMPOUND: O=C(c1ccco1)C1CC(c2c(O)ccc3ccccc23)=NN1 (stereo unspecified)
GI50: 14.9 µM (inactive)

COMPOUND: COc1ccc(C(C)NNC(=O)c2ccncc2)c(OC)c1 (stereo unspecified)
GI50: > 100 µM (inactive)

COMPOUND: O=C1C(N2CCOCC2)=C(Cl)C(=O)c2ncccc21
GI50: > 10 µM (inactive)

COMPOUND: NS(=O)(=O)c1nnc(/N=C(/CCC(=O)O)C(=O)O)s1
GI50: > 100 µM (inactive)

Note: attention shifts to another entry.
Task item: Requested read-out: GI50. Entry: C=C1CC(Cn2ccc(=O)[nH]c2=O)(c2ccc(OC)cc2)OC1=O (stereo unspecified)
Reply: 12.2 µM (inactive)

====

tested on: HCC 2998; experiment: NCI tumour cell line growth inhibition, 48 h
Activity calls are given as the source filed them. Cut-off read from the data, not from the text of the source: active = GI50 up to about 1.1 µM and inactive = higher.
Listed here are molecules together with their documented GI50.

Before answering, review these 4 worked examples.
MOLECULE: CC1(C)CC[C@]2(C)CC[C@]3(C)C(=CC[C@@H]4[C@@]5(C)CCC(=O)C(C)(C)[C@@H]5[C@H](O)C[C@]43C)[C@@H]2C1
GI50: 15.5 µM (inactive)

MOLECULE: N=c1c2c(=S)n(-c3ccccc3)c(=S)n(-c3ccccc3)c2nc(SCCCN2CCN(c3cccc(Cl)c3)CC2)n1-c1ccccc1
GI50: > 100 µM (inactive)

MOLECULE: CC1=NN(C(=O)c2ccccc2O)C(=O)/C1=C/c1cccc([N+](=O)[O-])c1
GI50: 36.1 µM (inactive)

MOLECULE: CC(=O)OC1=C2CC3(C)OC(=O)CC(C)(C)C3=CC=C2C=C(C(C)C)C1=O (stereo not drawn)
GI50: 0.877 µM (active)

Task item: # value lookup — system HCC 2998, readout GI50, item `CC(C)=CCC[C@@H](C)/C=C/C=C(\C)C(=O)CC[C@@H]1CC[N@+]2(C)CCCC[C@H]12`
Reply: > 100 µM (inactive)

Task item: Then what about the molecule `COC(=O)c1ccccc1NC(=S)NN(C)C` ?
Reply: > 100 µM (inactive)

Task item: Then what about the molecule `O=C(O)c1cc(O)c2c(c1)Cc1cccc(O)c1C2=O` ?
Reply: 41.4 µM (inactive)

Task item: Then what about the molecule `COc1cc(CNc2nc3cc(C(F)(F)F)ccc3nc2C(=O)O)cc(OC)c1OC` ?
Reply: 41.4 µM (inactive)
